Here's a batch of molecules along with measured Kd for Serine/threonine-protein kinase ULK1 (Homo sapiens, UniProt O75385).
Calls of active or inactive are those of the source.

Consider the worked cases shown below.
[
  {
    "molecule": "CC(=O)Nc1cccc(-n2c(=O)n(C3CC3)c(=O)c3c(Nc4ccc(I)cc4F)n(C)c(=O)c(C)c32)c1 [TRAMETINIB]",
    "Kd": "> 30 µM (inactive)"
  },
  {
    "molecule": "Cc1ccc(-n2nc(C(C)(C)C)cc2NC(=O)NCc2cc(F)ccc2Oc2ccc3c(cnn3CCO)c2)cc1 [PEXMETINIB]",
    "Kd": "> 30 µM (inactive)"
  },
  {
    "molecule": "O=c1sn(-c2cccc3ccccc23)c(=O)n1Cc1ccccc1 [TIDEGLUSIB]",
    "Kd": "> 30 µM (inactive)"
  }
]

Now turn to the next molecule.
Form field - read-out: Kd; system: Serine/threonine-protein kinase ULK1 (Homo sapiens, UniProt O75385); submitted item: COC(=O)N[C@@H](C)CNc1nccc(-c2cn(C(C)C)nc2-c2cc(Cl)cc(NS(C)(=O)=O)c2F)n1 [ENCORAFENIB]; also: in the data inactive means no Kd found up to 30 µM
Sequence (O75385 whole entry): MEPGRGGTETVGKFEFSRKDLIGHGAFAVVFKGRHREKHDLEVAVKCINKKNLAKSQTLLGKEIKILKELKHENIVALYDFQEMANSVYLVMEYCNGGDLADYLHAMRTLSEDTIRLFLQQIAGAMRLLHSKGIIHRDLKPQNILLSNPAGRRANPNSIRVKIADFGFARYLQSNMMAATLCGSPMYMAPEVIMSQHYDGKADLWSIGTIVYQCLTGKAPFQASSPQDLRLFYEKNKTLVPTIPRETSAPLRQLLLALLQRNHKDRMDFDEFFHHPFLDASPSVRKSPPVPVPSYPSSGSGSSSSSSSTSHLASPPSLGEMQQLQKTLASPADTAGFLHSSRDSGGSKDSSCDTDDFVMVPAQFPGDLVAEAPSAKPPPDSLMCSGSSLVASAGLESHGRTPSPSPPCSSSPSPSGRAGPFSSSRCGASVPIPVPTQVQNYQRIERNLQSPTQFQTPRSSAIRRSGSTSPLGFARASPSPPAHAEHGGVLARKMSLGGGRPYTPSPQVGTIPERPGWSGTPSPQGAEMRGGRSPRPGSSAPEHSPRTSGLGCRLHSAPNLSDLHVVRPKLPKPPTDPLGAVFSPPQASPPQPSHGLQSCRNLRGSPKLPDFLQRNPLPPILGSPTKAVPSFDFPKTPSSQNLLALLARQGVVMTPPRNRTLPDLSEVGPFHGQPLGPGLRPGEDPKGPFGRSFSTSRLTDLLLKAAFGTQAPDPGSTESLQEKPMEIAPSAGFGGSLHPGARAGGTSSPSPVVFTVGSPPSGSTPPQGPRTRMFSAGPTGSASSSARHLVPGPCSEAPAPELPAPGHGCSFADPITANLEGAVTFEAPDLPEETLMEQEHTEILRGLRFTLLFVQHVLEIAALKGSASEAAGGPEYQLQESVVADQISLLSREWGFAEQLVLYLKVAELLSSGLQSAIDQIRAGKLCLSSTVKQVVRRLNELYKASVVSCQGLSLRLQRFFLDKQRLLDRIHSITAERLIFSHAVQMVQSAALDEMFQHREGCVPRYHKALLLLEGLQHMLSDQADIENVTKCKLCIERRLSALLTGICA
> 30 µM (inactive)
